Listed next: entries and their corresponding Activity Relative to MC3.
System: luciferase expression in the liver
TEST_METHOD_NOTES: In vivo luciferase mRNA expression rodent model (lipid nanoparticle formulations of cationic lipids)
Design: species or system mice
EXPERIMENTAL_CONTEXT: luciferase expression in liver 4 hours after tail vein injection; LNP 50% cationic lipid/10% DSPC/38.5% cholesterol/1.5% PEG-DMA; MC3 activity=1

| MOLECULE | Activity Relative to MC3 |
| --- | --- |
| CCCCCCCCC(CCCCCC)C(=O)OCCCCCCCCCC(CCCCCCCCCOC(=O)C(CCCCCC)CCCCCCCC)OC(=O)CCCCN(C)C (stereo not shown) | ~8 |
| CCCCCCCCC(CCCCCC)C(=O)OCCCCCCCCCC(CCCCCCCCCOC(=O)C(CCCCCC)CCCCCCCC)OC(=O)CCCN(C)C (stereo not shown) | ~2 |
| CCCCC/C=C\C/C=C\CCCCCCCCC(CCCCCCCC/C=C\C/C=C\CCCCC)OC(=O)CCCN(C)C [MC3, reference compound] | 1 |
| CCCCCCCCC(CCCCCC)COC(=O)CCCCCCCCCCCC(CCCCCCCCCCCC(=O)OCC(CCCCCC)CCCCCCCC)OC(=O)CCCN(C)C (stereo not shown) | ~0.75 |

FYI, the data here is from patent US12678515B2.
